Sourced from paper PMC9482650

Target: T1, MPP7, Q5T2T1
T1 sequence (Q5T2T1 134-230, limits assumed, looked up): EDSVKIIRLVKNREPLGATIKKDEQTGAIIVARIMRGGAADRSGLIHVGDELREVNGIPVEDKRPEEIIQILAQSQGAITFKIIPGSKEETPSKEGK
Test: holdup assay
Design: key: below the threshold = too weak to quantify, mostly under pKd 3.1 to 4
Settings: plain residues with an end cap or a label only (N-terminal biotin on a linker: ado-ado)
Property: pKd

EALLQMESVA [CAVIN3, Q969G5]; below the threshold
HSGYRLNDYV [CLDN14, O95500]; below the threshold
YNNCLEILRV [DCAF7, P61962]; below the threshold
EVEEFPETSV [TRPV3, Q8NET8]; 3.57
